# Test system: SQ-20B cells
# protocol description: Clonogenic survival after ionizing radiation, fit to the single hit multitarget and linear quadratic models
# Format: cell-based, human
# Set-up: unit not given here
# experimental parameters: SQ-20B cells treated with drug at IC50, then gamma radiation
Classify as follows. Reported α (linear quadratic model) greater than or equal to 0.02: true. Reported α (linear quadratic model) below: false.

Query block: Exam item: decide whether the reported α (linear quadratic model) for CN(C)c1ccc(C(=O)NCCCCCCC(=O)NO)cc1 [M344] is at least 0.02.
Result block: true

Query block: Exam item: decide whether the reported α (linear quadratic model) for C/C=C1\NC(=O)[C@H]2CSSCC/C=C/[C@H](CC(=O)N[C@H](C(C)C)C(=O)N2)OC(=O)[C@H](C(C)C)NC1=O [FR, depsipsptide (FR 901228)] is at least 0.02.
Result block: true

Query block: Exam item: decide whether the reported α (linear quadratic model) for CN(C)c1ccc(C(=O)NCCCCCC(=O)NO)cc1 [MD85] is at least 0.02.
Result block: true

Query block: Exam item: decide whether the reported α (linear quadratic model) for CC(/C=C/C(=O)NO)=C\[C@@H](C)C(=O)c1ccc(N(C)C)cc1 [TSA, trichostatin A] is at least 0.02.
Result block: true

Query block: Exam item: decide whether the reported α (linear quadratic model) for O=C(CCCCCCC(=O)Nc1ccccc1)NO [SAHA, suberonylanilide hydroxamic acid] is at least 0.02.
Result block: false
